# Study System: rhMAO-B (Homo sapiens (Human), UniProt P27338)
# Sequence (P27338 whole entry): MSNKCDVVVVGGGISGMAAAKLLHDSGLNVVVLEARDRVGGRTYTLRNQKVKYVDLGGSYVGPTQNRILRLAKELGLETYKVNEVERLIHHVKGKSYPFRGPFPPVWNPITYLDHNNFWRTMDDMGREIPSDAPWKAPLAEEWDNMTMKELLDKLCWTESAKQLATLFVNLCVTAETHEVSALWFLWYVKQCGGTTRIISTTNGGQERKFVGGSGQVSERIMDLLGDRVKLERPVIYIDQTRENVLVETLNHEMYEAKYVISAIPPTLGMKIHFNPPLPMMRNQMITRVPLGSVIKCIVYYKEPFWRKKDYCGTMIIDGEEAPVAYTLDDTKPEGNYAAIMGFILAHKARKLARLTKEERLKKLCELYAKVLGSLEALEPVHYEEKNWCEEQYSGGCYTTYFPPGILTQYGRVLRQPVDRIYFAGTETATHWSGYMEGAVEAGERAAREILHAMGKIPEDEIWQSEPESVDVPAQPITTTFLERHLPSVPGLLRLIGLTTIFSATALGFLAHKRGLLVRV
# Protocol: MAO-Glo assay, MAO-B inhibition
# Format: biochemical
# Assay Context: class symbols, ranges defined in μM
Measurement Kind: IC50

[
  {
    "Compound": "CCCN(C)c1nc2ccc(OC/C(=C/F)CN)cc2o1 [Example 46, 4-methylbenzenesulfonate]",
    "Reported Result": "1 to 10 µM"
  },
  {
    "Compound": "CC(C)(C)c1nc2ccc(OC/C(=C/F)CN)cc2o1 [Example 50, 4-methylbenzenesulfonate]",
    "Reported Result": "1 to 10 µM"
  },
  {
    "Compound": "CCCCc1nc2c(F)cc(OC/C(=C/F)CN)cc2o1",
    "Reported Result": "< 0.1 µM"
  },
  {
    "Compound": "CNC(=O)[C@H](Cc1ccccc1)Nc1nc2ccc(OC/C(=C\\F)CN)cc2o1 [Example 71, 4-methylbenzenesulfonate]",
    "Reported Result": "1 to 10 µM"
  },
  {
    "Compound": "COCCCNc1nc2ccc(OC/C(=C\\F)CN)cc2o1 [Example 81, 4-methylbenzenesulfonate]",
    "Reported Result": "1 to 10 µM"
  },
  {
    "Compound": "NC/C(=C\\F)COc1ccc2nc(CCCCc3ccccc3)oc2c1 [Example 35, 4-methylbenzenesulfonate]",
    "Reported Result": "< 0.1 µM"
  },
  {
    "Compound": "CNC(=O)C(Cc1ccccc1)Nc1nc2ccc(OC/C(=C\\F)CN)cc2o1 (centres unmarked) [Example 56, 4-methylbenzenesulfonate]",
    "Reported Result": "10 to 30 µM"
  },
  {
    "Compound": "CCCCc1nc2ccc(OC/C(=C\\F)CN)cc2o1 [Example 19, 4-methylbenzenesulfonate]",
    "Reported Result": "0.1 to 1 µM"
  }
]

Measured values drawn from patent US20230295140A1 for this set.
